SYSTEM: Multidrug efflux pump subunit AcrB (Escherichia coli (strain K12))
METHOD NOTES: Inhibition of AcrB in Escherichia coli BW25113 assessed as potentiation of levofloxacin induced antibacterial activity by measuring levofloxacin MIC at 64 ug/ml measured after 18 hrs by checkerboard titration method (reference value: 0.06 ug/ml)
TEST CONDITIONS: dose 64.0 µg/ml
ASSAY METRIC: MIC (µg/mL)

COMPOUND | VALUE REPORTED
C[C@H](Cc1ccc(O)c(O)c1)[C@@H](C)Cc1ccc(O)c(O)c1 | 0.03
Oc1ccc(CCCCCc2ccc(O)c(O)c2)cc1O | 0.06
Oc1ccc(CCCCc2ccc(Cl)cc2)cc1O | 0.06
O=C(NCCc1ccc(O)c(O)c1)c1ccc(O)c(O)c1 | 0.06
O=C(NCCc1ccc(O)c(O)c1)c1ccc(C(F)(F)F)cc1 | 0.06
Oc1ccc(CCCCc2cc3cccc4ccc5cccc2c5c43)cc1O | 0.06
Nc1ccc(C(=O)NCCc2ccc(O)c(O)c2)cc1 | 0.06
Oc1ccc(CCCCc2cc(O)c(O)c(O)c2)cc1O | 0.06
Nc1cc(N)cc(C(=O)NCCc2ccc(O)c(O)c2)c1 | 0.06
Oc1ccc(CCCCCCCc2ccc(O)c(O)c2)cc1O | 0.06
O=C(NCCc1ccc(O)c(O)c1)c1cc(O)c(O)c(O)c1 | 0.03
Nc1ccccc1C(=O)NCCc1ccc(O)c(O)c1 | 0.06
O=C(NCCc1ccc(O)c(O)c1)c1ccc(Br)cc1 | 0.06
O=C(NCCc1ccc(O)c(O)c1)c1ccccc1O | 0.03
Oc1ccc(CCCCc2ccc(Br)cc2)cc1O | 0.06
Oc1ccc(CCCCc2ccc(O)c(O)c2)cc1O | 0.06
Oc1ccc(CCCc2ccc(O)c(O)c2)cc1O | 0.06
Oc1ccc(CCCCc2ccccc2O)cc1O | 0.06
Oc1ccc(CCCCCCc2ccc(O)c(O)c2)cc1O | 0.06

---

SYSTEM: Multidrug efflux pump subunit AcrB (Escherichia coli (strain K12)) (UniProt P31224)
Sequence (whole entry): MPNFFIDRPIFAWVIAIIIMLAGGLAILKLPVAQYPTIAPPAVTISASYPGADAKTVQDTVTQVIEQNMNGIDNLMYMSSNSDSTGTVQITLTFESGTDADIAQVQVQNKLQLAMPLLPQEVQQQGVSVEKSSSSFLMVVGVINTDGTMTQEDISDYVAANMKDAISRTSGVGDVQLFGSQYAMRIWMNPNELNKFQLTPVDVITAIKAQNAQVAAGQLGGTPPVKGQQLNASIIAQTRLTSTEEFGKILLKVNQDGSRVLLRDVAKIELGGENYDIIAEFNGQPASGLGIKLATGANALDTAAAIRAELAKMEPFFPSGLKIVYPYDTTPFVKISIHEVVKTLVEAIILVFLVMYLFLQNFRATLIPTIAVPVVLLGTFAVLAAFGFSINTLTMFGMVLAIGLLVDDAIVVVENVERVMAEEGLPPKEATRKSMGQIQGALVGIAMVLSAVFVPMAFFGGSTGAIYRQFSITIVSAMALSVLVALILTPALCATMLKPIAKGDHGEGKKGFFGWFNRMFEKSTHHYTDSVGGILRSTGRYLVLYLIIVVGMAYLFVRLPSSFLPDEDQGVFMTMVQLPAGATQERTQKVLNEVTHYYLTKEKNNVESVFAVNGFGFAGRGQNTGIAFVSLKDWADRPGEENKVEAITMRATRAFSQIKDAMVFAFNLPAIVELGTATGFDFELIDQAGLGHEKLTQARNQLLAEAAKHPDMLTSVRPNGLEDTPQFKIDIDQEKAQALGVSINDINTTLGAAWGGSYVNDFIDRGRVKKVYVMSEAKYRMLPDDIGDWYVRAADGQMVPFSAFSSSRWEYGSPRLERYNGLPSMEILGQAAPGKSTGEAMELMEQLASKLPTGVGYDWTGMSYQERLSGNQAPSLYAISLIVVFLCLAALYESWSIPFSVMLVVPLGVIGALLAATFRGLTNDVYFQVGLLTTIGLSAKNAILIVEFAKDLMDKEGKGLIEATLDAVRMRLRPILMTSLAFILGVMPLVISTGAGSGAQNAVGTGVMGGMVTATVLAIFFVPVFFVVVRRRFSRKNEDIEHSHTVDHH
METHOD NOTES: Inhibition of AcrB in Escherichia coli BW25113 assessed as potentiation of erythromycin induced antibacterial activity by measuring erythromycin MIC at 16 ug/ml measured after 18 hrs by checkerboard titration method (reference value: 64 ug/ml)
TEST CONDITIONS: dose 16.0 µg/ml
Property: MIC; scope: individual molecules

COMPOUND | MIC
Oc1ccc(CCCCCCCc2ccc(O)c(O)c2)cc1O | 64 µg/mL
Oc1ccc(CCCCc2ccc(Cl)cc2)cc1O | 64 µg/mL
Nc1ccccc1C(=O)NCCc1ccc(O)c(O)c1 | 64 µg/mL
Nc1cc(N)cc(C(=O)NCCc2ccc(O)c(O)c2)c1 | 64 µg/mL
Oc1ccc(CCCc2ccc(O)c(O)c2)cc1O | 64 µg/mL
O=C(NCCc1ccc(O)c(O)c1)c1ccc(Br)cc1 | 64 µg/mL
O=C(NCCc1ccc(O)c(O)c1)c1ccc(O)c(O)c1 | 64 µg/mL
Oc1ccc(CCCCc2cc3cccc4ccc5cccc2c5c43)cc1O | 64 µg/mL
Oc1ccc(CCCCc2ccc(Br)cc2)cc1O | 64 µg/mL
Cc1ccc(C(=O)NCCc2ccc(O)c(O)c2)cc1 | 32 µg/mL
Oc1ccc(CCCCCCc2ccc(O)c(O)c2)cc1O | 64 µg/mL
Oc1ccc(CCCCCc2ccc(O)c(O)c2)cc1O | 64 µg/mL
O=C(NCCc1ccc(O)c(O)c1)c1cc(O)c(O)c(O)c1 | 32 µg/mL
Oc1ccc(CCCCc2ccc(O)c(O)c2)cc1O | 64 µg/mL
O=C(NCCc1ccc(O)c(O)c1)c1ccccc1O | 64 µg/mL
Nc1ccc(C(=O)NCCc2ccc(O)c(O)c2)cc1 | 64 µg/mL
Oc1ccc(CCCCc2cc(O)c(O)c(O)c2)cc1O | 64 µg/mL
O=C(NCCc1ccc(O)c(O)c1)c1ccc(C(F)(F)F)cc1 | 64 µg/mL
Oc1ccc(CCCCc2ccccc2O)cc1O | 64 µg/mL

---

SYSTEM: Multidrug efflux pump subunit AcrB (Escherichia coli (strain K12)) (UniProt P31224)
METHOD NOTES: Inhibition of AcrB in Escherichia coli BW25113 assessed as potentiation of erythromycin induced antibacterial activity by measuring erythromycin MIC at 32 ug/ml measured after 18 hrs by checkerboard titration method (reference value: 64 ug/ml)
TEST CONDITIONS: dose 32.0 µg/ml
Listed molecules paired with reported MIC

COMPOUND | MIC [µg/mL]
Oc1ccc(CCCCc2cc(O)c(O)c(O)c2)cc1O | 64
Nc1ccccc1C(=O)NCCc1ccc(O)c(O)c1 | 64
Oc1ccc(CCCc2ccc(O)c(O)c2)cc1O | 64
Oc1ccc(CCCCCCc2ccc(O)c(O)c2)cc1O | 64
Nc1ccc(C(=O)NCCc2ccc(O)c(O)c2)cc1 | 32
Oc1ccc(CCCCc2cc3cccc4ccc5cccc2c5c43)cc1O | 64
Oc1ccc(CCCCc2ccc(Cl)cc2)cc1O | 64
Nc1cc(N)cc(C(=O)NCCc2ccc(O)c(O)c2)c1 | 32
Oc1ccc(CCCCc2ccc(O)c(O)c2)cc1O | 64
Oc1ccc(CCCCCCCc2ccc(O)c(O)c2)cc1O | 64
Cc1ccc(C(=O)NCCc2ccc(O)c(O)c2)cc1 | 16
O=C(NCCc1ccc(O)c(O)c1)c1ccccc1O | 64
C[C@H](Cc1ccc(O)c(O)c1)[C@@H](C)Cc1ccc(O)c(O)c1 | 64
O=C(NCCc1ccc(O)c(O)c1)c1cc(O)c(O)c(O)c1 | 32
O=C(NCCc1ccc(O)c(O)c1)c1ccc(C(F)(F)F)cc1 | 64
O=C(NCCc1ccc(O)c(O)c1)c1ccc(Br)cc1 | 64
Oc1ccc(CCCCc2ccccc2O)cc1O | 64
Oc1ccc(CCCCCc2ccc(O)c(O)c2)cc1O | 64
Oc1ccc(CCCCc2ccc(Br)cc2)cc1O | 64
O=C(NCCc1ccc(O)c(O)c1)c1ccc(O)c(O)c1 | 32

---

SYSTEM: Multidrug efflux pump subunit AcrB (Escherichia coli (strain K12)) (UniProt P31224)
Sequence (whole entry): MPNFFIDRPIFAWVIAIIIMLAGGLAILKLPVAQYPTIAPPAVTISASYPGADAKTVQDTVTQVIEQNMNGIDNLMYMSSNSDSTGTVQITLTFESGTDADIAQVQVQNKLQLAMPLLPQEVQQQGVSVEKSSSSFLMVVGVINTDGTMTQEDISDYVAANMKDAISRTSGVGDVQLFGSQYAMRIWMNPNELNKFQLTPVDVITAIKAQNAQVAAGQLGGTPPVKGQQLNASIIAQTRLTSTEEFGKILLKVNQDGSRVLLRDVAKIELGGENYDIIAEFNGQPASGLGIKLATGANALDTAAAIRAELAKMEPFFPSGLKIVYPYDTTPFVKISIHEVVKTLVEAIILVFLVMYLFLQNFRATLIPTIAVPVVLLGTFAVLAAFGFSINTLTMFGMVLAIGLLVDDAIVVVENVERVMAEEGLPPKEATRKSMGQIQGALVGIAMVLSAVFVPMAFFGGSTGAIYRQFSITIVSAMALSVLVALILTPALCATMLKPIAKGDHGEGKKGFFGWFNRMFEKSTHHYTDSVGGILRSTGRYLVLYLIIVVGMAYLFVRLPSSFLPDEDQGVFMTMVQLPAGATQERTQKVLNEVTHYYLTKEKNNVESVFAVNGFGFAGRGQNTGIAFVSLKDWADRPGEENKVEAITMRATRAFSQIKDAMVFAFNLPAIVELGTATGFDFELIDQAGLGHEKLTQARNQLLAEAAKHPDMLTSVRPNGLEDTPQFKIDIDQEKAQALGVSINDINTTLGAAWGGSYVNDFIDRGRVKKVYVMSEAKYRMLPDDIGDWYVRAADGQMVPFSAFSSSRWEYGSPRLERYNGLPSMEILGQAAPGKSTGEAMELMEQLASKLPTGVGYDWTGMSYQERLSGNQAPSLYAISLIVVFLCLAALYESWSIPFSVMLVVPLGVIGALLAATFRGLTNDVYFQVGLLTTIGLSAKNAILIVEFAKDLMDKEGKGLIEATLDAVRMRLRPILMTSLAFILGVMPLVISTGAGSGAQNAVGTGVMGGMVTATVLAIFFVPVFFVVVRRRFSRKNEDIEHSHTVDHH
METHOD NOTES: Inhibition of AcrB in Escherichia coli BW25113 assessed as potentiation of chloramphenicol induced antibacterial activity by measuring chloramphenicol MIC at 128 ug/ml measured after 18 hrs by checkerboard titration method (reference value: 8 ug/ml)
TEST CONDITIONS: dose 128.0 µg/ml
Quick reference for MIC among some molecules
ASSAY METRIC: MIC (µg/mL)

COMPOUND | SYSTEM | VALUE REPORTED
O=C(NCCc1ccc(O)c(O)c1)c1ccc(O)c(O)c1 | Multidrug efflux pump subunit AcrB (Escherichia coli (strain K12)) (UniProt P31224) | 2
O=C(NCCc1ccc(O)c(O)c1)c1ccc(Br)cc1 | Multidrug efflux pump subunit AcrB (Escherichia coli (strain K12)) (UniProt P31224) | 8
Oc1ccc(CCCCCCCc2ccc(O)c(O)c2)cc1O | Multidrug efflux pump subunit AcrB (Escherichia coli (strain K12)) (UniProt P31224) | 8
Oc1ccc(CCCCc2ccc(O)c(O)c2)cc1O | Multidrug efflux pump subunit AcrB (Escherichia coli (strain K12)) (UniProt P31224) | 8
Oc1ccc(CCCCc2ccc(Cl)cc2)cc1O | Multidrug efflux pump subunit AcrB (Escherichia coli (strain K12)) (UniProt P31224) | 16
Oc1ccc(CCCCCc2ccc(O)c(O)c2)cc1O | Multidrug efflux pump subunit AcrB (Escherichia coli (strain K12)) (UniProt P31224) | 8
O=C(NCCc1ccc(O)c(O)c1)c1cc(O)c(O)c(O)c1 | Multidrug efflux pump subunit AcrB (Escherichia coli (strain K12)) (UniProt P31224) | 2
Oc1ccc(CCCCc2ccccc2O)cc1O | Multidrug efflux pump subunit AcrB (Escherichia coli (strain K12)) (UniProt P31224) | 4
C[C@H](Cc1ccc(O)c(O)c1)[C@@H](C)Cc1ccc(O)c(O)c1 | Multidrug efflux pump subunit AcrB (Escherichia coli (strain K12)) (UniProt P31224) | 4
Nc1ccccc1C(=O)NCCc1ccc(O)c(O)c1 | Multidrug efflux pump subunit AcrB (Escherichia coli (strain K12)) (UniProt P31224) | 4
Oc1ccc(CCCc2ccc(O)c(O)c2)cc1O | Multidrug efflux pump subunit AcrB (Escherichia coli (strain K12)) (UniProt P31224) | 8
Nc1cc(N)cc(C(=O)NCCc2ccc(O)c(O)c2)c1 | Multidrug efflux pump subunit AcrB (Escherichia coli (strain K12)) (UniProt P31224) | 8
O=C(NCCc1ccc(O)c(O)c1)c1ccc(C(F)(F)F)cc1 | Multidrug efflux pump subunit AcrB (Escherichia coli (strain K12)) (UniProt P31224) | 8
Oc1ccc(CCCCCCc2ccc(O)c(O)c2)cc1O | Multidrug efflux pump subunit AcrB (Escherichia coli (strain K12)) (UniProt P31224) | 8
Oc1ccc(CCCCc2cc(O)c(O)c(O)c2)cc1O | Multidrug efflux pump subunit AcrB (Escherichia coli (strain K12)) (UniProt P31224) | 8
O=C(NCCc1ccc(O)c(O)c1)c1ccccc1O | Multidrug efflux pump subunit AcrB (Escherichia coli (strain K12)) (UniProt P31224) | 4
Oc1ccc(CCCCc2cc3cccc4ccc5cccc2c5c43)cc1O | Multidrug efflux pump subunit AcrB (Escherichia coli (strain K12)) (UniProt P31224) | 4
Nc1ccc(C(=O)NCCc2ccc(O)c(O)c2)cc1 | Multidrug efflux pump subunit AcrB (Escherichia coli (strain K12)) (UniProt P31224) | 2
Oc1ccc(CCCCc2ccc(Br)cc2)cc1O | Multidrug efflux pump subunit AcrB (Escherichia coli (strain K12)) (UniProt P31224) | 8
